system: J558L; assay: Inhibition of proteasome in mouse J558L cell lysate assessed as cleavage of Suc-leu-leu-val-Tyr-AMC at 1000 nM after 60 mins; parameters: scale not given: the % may be the effect or the level left
Parameter: Activity (%)
Expressed in %, but write only the number.

Ask: Give the measured Activity of CC(C)C[C@H](C=O)NC(=O)[C@@H](CC(C)C)NC(=O)[C@@H](CC(C)C)NC(=O)OCc1ccccc1 .
Result: 71

Ask: // query: CC(C)CC(NC(=O)[C@H](CC(C)C)NC(=O)OCc1ccccc1)C(=O)N[C@@H](C=O)CC(C)C (stereo in doubt; (+))
Result: 106

Ask: Lookup CC(C)CC(NC(=O)[C@@H](CC(C)C)NC(=O)OCc1ccccc1)C(=O)N[C@H](C=O)CC(C)C (single isomer, unassigned; (+))
Result: 121

Ask: What about CC(C)CC(NC(=O)[C@@H](CC(C)C)NC(=O)OCc1ccccc1)C(=O)N[C@H](C=O)CC(C)C (stereo in doubt) ?
Result: 53
